Numbers sourced from PubChem BioAssay (NCI).

Tested on: SNB-75 CNS
Assay: NCI tumour cell line growth inhibition, 48 h; in the data active means GI50 below about 0.43 µM; inactive means the rest
The reply should be one of these categories: 1 = active, -1 = inactive

Q) Dear colleague, could you share the recorded outcome for `Cc1ccc2c(-c3ccnc(Nc4ccc5c(c4)OCCO5)n3)c(-c3ccc(C(F)(F)F)cc3)nn2n1` when you have a moment?
A) -1

Q) What about this compound? CN(C)CCCC1(c2ccc(F)cc2)OCc2cc(-c3cccc4[nH]ccc34)ccc21 (centres undefined)
A) -1

Q) What about this compound? `c1ccc(-c2c(-c3ccccc3)[n+](Cc3ccc4ccccc4c3)c(-c3ccc(-c4nc5ccccc5s4)cc3)n2Cc2ccc3ccccc3c2)cc1`
A) 1

Q) What about this compound? CCN(CC)Cc1cc(Nc2nc(NC3CCC(N(C)C)CC3)c3ccccc3n2)ccc1OC (centres undefined)
A) -1

* * *

Tested on: OVCAR-8 ovarian
Test: NCI tumour cell line growth inhibition, 48 h; in the data active = GI50 below about 0.43 µM; inactive = the rest
The reply should be one of these categories: active, inactive

Q) Dear colleague, could you share the recorded outcome for `COc1ccc2c(c1)C(=O)c1c-2c(Nc2ccccc2OC)nc2ccccc12` when you have a moment?
A) inactive

Q) What about this molecule? COC(=O)OC1C(O[C@H]2C[C@H]3[C@@H]4CC=C5C[C@@H](O)CC[C@]5(C)[C@H]4CC[C@]3(C)[C@H]2[C@H](C)C(=O)CCC(C)C)OCC(O)C1OC1OCC(O)C(O)C1OC(=O)c1ccc(OC)cc1 (stereo partly drawn)
A) inactive

Q) What about this molecule? `COc1cc2c(N3CCN(C(=O)Nc4ccc(OC(C)C)cc4)CC3)ncnc2cc1OCCCN1CCCCC1`
A) inactive

Q) What about this molecule? `CCCCCOc1ccc(/C=N/Nc2cc(C)nc3ccc(Cl)cc23)cc1`
A) inactive

Q) What about this molecule? `O=C(OCc1ccc2c(Br)cc(Br)c(O)c2n1)c1cc2ccccc2[nH]1`
A) inactive

Q) What about this molecule? `Cc1c2ccnc(C(N)=O)c2c(C)c2c1[nH]c1ccccc12`
A) inactive

Q) What about this molecule? CC(=O)O[C@H]1C(=O)[C@@]2(C)C([C@H](OC(=O)c3ccccc3)[C@]3(O)C[C@H](OC(=O)[C@H](O)[C@@H](NC(=O)c4ccccc4)c4ccccc4)C(C)=C1C3(C)C)[C@]1(OC(C)=O)CO[C@@H]1C[C@@H]2O (stereo partly drawn)
A) active

Q) What about this molecule? `Cc1ccc2c(-c3ccnc(Nc4ccc5c(c4)OCCO5)n3)c(-c3ccc(C(F)(F)F)cc3)nn2n1`
A) inactive

Q) What about this molecule? `CCN(CC)CCCNc1ccc(C)c2sc3ccccc3c(=O)c12`
A) inactive

Q) What about this molecule? `COc1ccc(OC)c(/C=C/c2nc(=S)n(-c3ccc(Cl)cc3)[nH]2)c1`
A) inactive

Q) What about this molecule? `CSC1=Nc2c(c(C)c(C)n2COC(CO)CO)C2=NC(=O)CN12`
A) inactive

Q) What about this molecule? CC(=O)ON1CCCC(P(=O)(OCOC(=O)C(C)(C)C)OCOC(=O)C(C)(C)C)C1=O (stereo not drawn)
A) active

Q) What about this molecule? `Cn1c([N+](=O)[O-])cnc1C=C1C(=O)c2ccccc2C1=O`
A) inactive

* * *

Tested on: 786-0 renal
Test: NCI tumour cell line growth inhibition, 48 h; in the data active = GI50 below about 0.43 µM; inactive = the rest
The reply should be one of these categories: 1 (yes) = active, 0 (no) = inactive

Q) Dear colleague, could you share the recorded outcome for `CCN=c1sc2c(n1NC(=O)c1cc3ccc1CCc1ccc(cc1)CC3)C(=O)c1ccccc1C2=O` when you have a moment?
A) 0 (no)

Q) What about this compound? `CSC1=Nc2c(c(C)c(C)n2COC(CO)CO)C2=NC(=O)CN12`
A) 0 (no)

Q) What about this compound? `COc1cc(CNc2nc3cc(N)cc(N)c3nc2-c2ccccc2)cc(OC)c1`
A) 0 (no)

Q) What about this compound? `N#Cc1nc2c(S(=O)(=O)c3ccc(Cl)cc3)c(N)n(Nc3cccc(Cl)c3)c2nc1C#N`
A) 1 (yes)

Q) What about this compound? `COc1cc2c(N3CCN(C(=O)Nc4ccc(OC(C)C)cc4)CC3)ncnc2cc1OCCCN1CCCCC1`
A) 0 (no)

* * *

System: NCI-H226 lung
Test: NCI tumour cell line growth inhibition, 48 h
experimental-readout: TGI

Q) Reported TGI for `CC1(C)OC[C@@H]([C@@]2(CO[Si](c3ccccc3)(c3ccccc3)C(C)(C)C)CC=CC(=O)O2)O1` : what is it?
A) 24.1 µM

Q) What about this compound? Cc1ccc2c(c1C)C(=O)C1(Cc3cc4c(cc3C1=O)CCC4)C2 (stereo not drawn)
A) > 100 µM

Q) What about this compound? `CN[C@@H](C)C(=O)N[C@H]1CN(S(=O)(=O)c2cccc(S(=O)(=O)N3CC[C@H]4CC[C@@H](C(=O)NC(c5ccccc5)c5ccccc5)N4C(=O)[C@@H](NC(=O)[C@H](C)NC)C3)c2)CC[C@H]2CC[C@@H](C(=O)NC(c3ccccc3)c3ccccc3)N2C1=O`
A) > 100 µM

* * *

Task for the reader: assign each of the following molecules its reported TGI.
System: OVCAR-3 ovarian
Test: NCI tumour cell line growth inhibition, 48 h
Could you give me the number in µM? Just the number is fine.

Q) Reported TGI for CCN(CC)Cc1cc(Nc2nc(NC3CCC(N(C)C)CC3)c3ccccc3n2)ccc1OC (centres undefined) : what is it?
A) 24.7

Q) What about this molecule? `FC(F)(F)Oc1cccc(-c2cc(NCCCCCCNc3cc(-c4cccc(OC(F)(F)F)c4)nc4ccc(N5CCCC5)cc34)c3cc(N4CCCC4)ccc3n2)c1`
A) 3.24

Q) What about this molecule? `O=c1c2ccccc2sc2c(CO)ccc(NCCN3CCCCC3)c12`
A) 7.71

Q) What about this molecule? `NS(=O)(=O)c1nnc(NC(=O)N(c2ccccc2)c2ccccc2)s1`
A) 69.7

Q) What about this molecule? `CNCc1cccc2c1OCCOCCOCCN(C)S(=O)(=O)c1ccc(cc1)-c1cnc(N)c(n1)C(=O)N2`
A) 9.79

Q) What about this molecule? `CNC(=O)c1ncccc1Nc1nc(Nc2cc3c(cc2OC)CCCN3C(=O)CN(C)C)nc2[nH]ccc12`
A) 3.39

Q) What about this molecule? `N#CC1(c2ccc(NC(=O)c3cccnc3NCc3ccncc3)cc2)CCCC1`
A) 70

Q) What about this molecule? Nc1nc2c(c3cnccc13)C(c1ccc(Cl)c(Cl)c1)Cc1cnccc1-2 (centres undefined)
A) 5.86

Q) What about this molecule? Nc1ncnc2c1N=C(c1ccc3c(c1)OCO3)CC(c1ccc(Cl)cc1)N2 (centres undefined)
A) 18.6

Q) What about this molecule? COC(=O)/C=C(/C=C1/C(C#N)=C(N)N(c2ccc(Cl)cc2)C1(C)/C(=C\C(=O)OC)C(=O)OC)C(=O)OC (centres undefined)
A) 42.3

Q) What about this molecule? `CCn1cc(C(=O)O)c(=O)c2cc(F)c(N3CCN(S(=O)(=O)c4cccc5ccccc45)CC3)cc21`
A) 15.6

Q) What about this molecule? `O=C1C=CC2(O[C@H](c3ccccc3)[C@@H](c3ccccc3)O2)[C@H](Sc2ccccc2O)C1`
A) 1.51

Q) What about this molecule? `COc1ccc2c(c1)c1c(n2CCN2CCCCC2)-c2cccc(OC)c2CC1`
A) 34.5

Q) What about this molecule? CC(C)C(Br)CCC1=CCC(Br)(Br)C1 (centres undefined)
A) 25.7

Q) What about this molecule? `Cc1c(C(=N)C(C#N)C#N)c(=N)oc2c1ccc1ccccc12`
A) 40.8

Q) What about this molecule? COCC([C@@H](O)C(O)C(=O)NCC[C@@H](C)c1nc(/C=C/CC2OC3(C[C@H](O)C2C)OC(C(C[C@H](O)C(C)[C@H](O)C(C)/C=C(C)/C(C)=C/C=C/C(C)=C/C#N)OC)[C@@H](OP(=O)(O)O)C3(C)C)co1)N(C)C (some centres undefined)
A) 0.000326

Q) What about this molecule? CCN1C(=S)N(CC)C2C1NC(=S)N2/N=C/C=C/c1ccccc1OC (centres undefined)
A) 0.64

Q) What about this molecule? `OC1(c2ccc(Cl)c(C(F)(F)F)c2)CCN(CCCC(c2ccc(F)cc2)c2ccc(F)cc2)CC1`
A) 1.63

Q) What about this molecule? `COc1ccc(OC)c(NCC(=O)n2nc(/C=C\c3ccc(O)c(OC)c3)cc2/C=C\c2ccc(O)c(OC)c2)c1`
A) 13.9

* * *

Test system: SR leukemia
Experiment: NCI tumour cell line growth inhibition, 48 h
experimental-readout: GI50

Q) Reported GI50 for `COc1cc2c(N3CCN(C(=O)Nc4ccc(OC(C)C)cc4)CC3)ncnc2cc1OCCCN1CCCCC1` : what is it?
A) 9550 nM

Q) What about this compound? `CC(C)(CO)CNC(=O)c1ccc2[nH]c(O)c(N=Nc3ccc(S(N)(=O)=O)cc3)c2c1`
A) > 25000 nM

Q) What about this compound? `c1ccc(-c2[nH]ncc2-c2ccnc(-c3ccc(OCCn4ccnc4)cc3)c2)nc1`
A) > 25000 nM

Q) What about this compound? `CCN(CC)CCCNc1ccc(C)c2sc3ccccc3c(=O)c12`
A) 268 nM

Q) What about this compound? `O=C1/C(=C/c2ccc(Cl)c(Cl)c2)CN(C(=O)CCN2CCC(=NO)CC2)C/C1=C\c1ccc(Cl)c(Cl)c1`
A) 353 nM

Q) What about this compound? `COc1ccc2sc3c(NCCCN)nc4ccccc4c3c(=O)c2c1`
A) 832 nM

Q) What about this compound? `COc1cc2c(cc1Nc1nc(N3CCc4ccccc43)c3cc[nH]c3n1)N(C(=O)CN(C)C)CC2`
A) 517 nM

Q) What about this compound? `CSC1=Nc2c(c(C)c(C)n2COC(CO)CO)C2=NC(=O)CN12`
A) > 100000 nM

Q) What about this compound? `Cc1cccc(NC(=O)c2sc3nc4c(cc3c2N)C(=O)CCC4)c1`
A) 445 nM

Q) What about this compound? CC(=O)ON1CCCC(P(=O)(OCOC(=O)C(C)(C)C)OCOC(=O)C(C)(C)C)C1=O (stereo not given)
A) 309 nM

Q) What about this compound? `COc1cc(CNc2nc3cc(N)cc(N)c3nc2-c2ccccc2)cc(OC)c1`
A) 3840 nM

Q) What about this compound? `Cc1ccc(O)cc1Nc1ccnc2ccc(S(C)(=O)=O)cc12`
A) > 25000 nM

Q) What about this compound? O=C(/C=C/C12c3ccccc3C(c3ccccc31)C1C(=O)NC(=O)C12)c1ccccn1 (stereo not given)
A) 782 nM

Q) What about this compound? `COc1ccc(C(=O)c2cc(OC)c(OC)c(OC)c2OC)cc1O`
A) 610 nM

Q) What about this compound? `O=C(OCc1ccc2c(Br)cc(Br)c(O)c2n1)c1cc2ccccc2[nH]1`
A) 430 nM
